target: BTK (Homo sapiens, UniProt Q06187); construct: endogenous in cells; host or cells: TMD8 cells; assay: Cellular BTK HTRF assay (BTK degradation) in TMD8 cells; type: cell-based; details: four hours incubation, Total-BTK HTRF relative to DMSO-treated cells
Sequence (Q06187 whole entry): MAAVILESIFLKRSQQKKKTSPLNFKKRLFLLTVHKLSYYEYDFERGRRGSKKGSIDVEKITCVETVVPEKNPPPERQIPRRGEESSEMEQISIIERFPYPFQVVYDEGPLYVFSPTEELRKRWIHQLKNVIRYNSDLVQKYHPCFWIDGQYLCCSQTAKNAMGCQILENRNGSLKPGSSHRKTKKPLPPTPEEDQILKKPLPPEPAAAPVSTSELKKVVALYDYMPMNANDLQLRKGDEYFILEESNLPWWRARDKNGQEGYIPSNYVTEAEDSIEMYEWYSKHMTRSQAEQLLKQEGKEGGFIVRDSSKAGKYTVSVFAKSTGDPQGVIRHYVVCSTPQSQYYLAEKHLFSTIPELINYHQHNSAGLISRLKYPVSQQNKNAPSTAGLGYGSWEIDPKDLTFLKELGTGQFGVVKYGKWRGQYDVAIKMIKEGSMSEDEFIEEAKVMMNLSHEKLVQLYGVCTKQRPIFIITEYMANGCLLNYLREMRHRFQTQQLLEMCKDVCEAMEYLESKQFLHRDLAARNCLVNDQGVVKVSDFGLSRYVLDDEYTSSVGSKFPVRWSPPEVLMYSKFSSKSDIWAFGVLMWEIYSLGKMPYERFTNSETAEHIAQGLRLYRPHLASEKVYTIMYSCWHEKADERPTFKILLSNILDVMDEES
measured.property: DC50

Known results for compounds:
CN1CCN([C@@H]2CCCN(c3cnc(C(N)=O)c(Nc4ccc(C5CCN(C[C@H]6CC[C@H](Nc7cccc8c7C(=O)N(C7CCC(=O)NC7=O)C8=O)CC6)CC5)cc4)n3)C2)C1=O (stereo partly drawn) | < 5 nM
CN1CCN([C@H]2CCCN(c3cnc(C(N)=O)c(Nc4ccc(C5CCN(CC6CCN(c7ccc(NC8CCC(=O)NC8=O)cn7)CC6)CC5)cc4)n3)C2)C1=O (stereo partly drawn) | < 5 nM
CN1CCN([C@@H]2CCCN(c3cnc(C(N)=O)c(Nc4ccc(N5CCN(CC6CCN(c7ccc8c(c7)C(=O)N(C7CCC(=O)NC7=O)C8=O)CC6)CC5)cc4)n3)C2)C1=O (stereo partly drawn) | < 5 nM
Cn1cc(Nc2nc(N3CCC[C@@H](N4CCC5(CN(CC6CCN(c7ccc8c(c7)C(=O)N(C7CCC(=O)NC7=O)C8=O)CC6)C5)C4=O)C3)cnc2C(N)=O)cn1 (stereo partly drawn) | < 5 nM

DC50 reading for CN1CCN([C@@H]2CCCN(c3cnc(C(N)=O)c(Nc4ccc5c(c4)CCN(CC4CCN(c6ccc7c(c6)C(=O)N(C6CCC(=O)NC6=O)C7=O)CC4)C5)n3)C2)C1=O (stereo partly drawn) : < 5 nM

DC50 reading for CN1CCN(C2CCCN(c3cnc(C(N)=O)c(Nc4ccc(C5CCN(CC6CCN(c7ccc8c(c7)CN(C7CCC(=O)NC7=O)C8=O)C6)CC5)cc4)n3)C2)C1=O (stereo not drawn) : < 5 nM

DC50 reading for CN1CCN([C@@H]2CCCN(c3cnc(C(N)=O)c(Nc4ccc(C5(C)CCN(C(=O)CCCc6nnc(Nc7cccc8c7CN(C7CCC(=O)NC7=O)C8=O)o6)CC5)cc4)n3)C2)C1=O (stereo partly drawn) : > 15 nM

DC50 reading for NC(=O)c1ncc(N2CCCCC2)nc1Nc1ccc(N2CCC3(CC2)CCN(c2ccc4c(c2)C(=O)N(C2CCC(=O)NC2=O)C4=O)CC3)cc1 (stereo not drawn) : > 15 nM

DC50 reading for CN1CCN([C@@H]2CCCN(c3cnc(C(N)=O)c(Nc4ccc(N5CCN(C[C@H]6CCN(c7ccc8c(c7)C(=O)N(C7CCC(=O)NC7=O)C8=O)C6)CC5)cc4)n3)C2)C1=O (stereo partly drawn) : < 5 nM

* * *

Recorded DC50 by entry
biological target: BTK (Homo sapiens); construct: endogenous in cells; host or cells: TMD8 cells; experiment: Cellular BTK HTRF assay (BTK degradation) in TMD8 cells; type: cell-based; details: four hours incubation, Total-BTK HTRF relative to DMSO-treated cells

Known results for compounds:
CN1CCN(c2cnc(C(N)=O)c(Nc3ccc(C4CCN(C[C@H]5CCN(c6ccc7c(c6)C(=O)N(C6CCC(=O)NC6=O)C7=O)C5)CC4)cc3)n2)CC1 (stereo partly shown) | 5 to 15 nM
CN1CCN([C@@H]2CCCN(c3cnc(C(N)=O)c(Nc4ccc(C5(C)CCN(C(=O)CCOCCOCCOCCNc6cccc7c6C(=O)N(C6CCC(=O)NC6=O)C7=O)CC5)cc4)n3)C2)C1=O (stereo partly shown) | 5 to 15 nM
NC(=O)c1ncc(N2CCCCC2)nc1Nc1ccc(C2CCN(CC3CCN(c4ccc(CC5CCC(=O)NC5=O)cn4)CC3)CC2)cc1 (stereo not shown) | > 15 nM
CN1CCN([C@@H]2CCCN(c3cnc(C(N)=O)c(Nc4ccc(C5(C)CCN(C(=O)CN6CCN(CCc7cccc8c7CN(C7CCC(=O)NC7=O)C8=O)CC6)CC5)cc4)n3)C2)C1=O (stereo partly shown) | 5 to 15 nM

DC50 reading for CN1CCN([C@@H]2CCCN(c3cnc(C(N)=O)c(Nc4ccc(N5CCC6(CCCN(c7ccc8c(c7)C(=O)N(C7CCC(=O)NC7=O)C8=O)C6)CC5)cc4)n3)C2)C1=O (stereo partly shown) : < 5 nM

DC50 reading for CN1CCN([C@@H]2CCCN(c3cnc(C(N)=O)c(Nc4ccc(OCCCNC(=O)CCCN5CCN(c6ccc7c(c6)C(=O)N(C6CCC(=O)NC6=O)C7=O)CC5)cc4)n3)C2)C1=O (stereo partly shown) : > 15 nM

DC50 reading for CN1CCN([C@@H]2CCCN(c3cnc(C(N)=O)c(Nc4ccc(C5CCN(CC6CCN(c7ccc(-c8nn(C9CCC(=O)NC9=O)c(=O)n8C)cc7)CC6)CC5)cc4)n3)C2)C1=O (stereo partly shown) : < 5 nM

* * *

molecular target: BTK (Homo sapiens, UniProt Q06187); construct: endogenous in cells; host or cells: TMD8 cells; test: Cellular BTK HTRF assay (BTK degradation) in TMD8 cells; format: cell-based; conditions: four hours incubation, Total-BTK HTRF relative to DMSO-treated cells
Recorded DC50 by entry

Known results for compounds:
Cn1c(-c2ccc(N3CCC(CN4CCC(c5ccc(Nc6nc(N7CCCC8(COC8)C7)cnc6C(N)=O)cc5)CC4)CC3)cc2)nn(C2CCC(=O)NC2=O)c1=O (centres unmarked) | 5 to 15 nM
NC(=O)c1ncc(-c2nccs2)nc1Nc1ccc(N2CCC3(CC2)CCN(c2ccc4c(c2)C(=O)N(C2CCC(=O)NC2=O)C4=O)CC3)cc1 (centres unmarked) | > 15 nM
NC(=O)c1ncc(-c2nccs2)nc1Nc1ccc(C2CCN(C[C@@H]3CCN(c4ccc5c(c4)C(=O)N(C4CCC(=O)NC4=O)C5=O)C3)CC2)cc1 (some centres unmarked) | < 5 nM

DC50 reading for NC(=O)c1ncc(N2CCC(C(=O)O)CC2)nc1Nc1ccc(C2CCN(C[C@H]3CCN(c4ccc5c(c4)C(=O)N(C4CCC(=O)NC4=O)C5=O)C3)CC2)cc1 (some centres unmarked) : 5 to 15 nM

DC50 reading for CN1CCN([C@@H]2CCCN(c3cnc(C(N)=O)c(Nc4ccc(C5CCN(CC6CN(c7ccc8c(c7)C(=O)N(C7CCC(=O)NC7=O)C8=O)C6)CC5)cc4)n3)C2)C1=O (some centres unmarked) : < 5 nM

* * *

Recorded DC50 by entry
target: BTK (Homo sapiens); construct: endogenous in cells; host or cells: TMD8 cells; experiment: Cellular BTK HTRF assay (BTK degradation) in TMD8 cells; format: cell-based; conditions: four hours incubation, Total-BTK HTRF relative to DMSO-treated cells

Known results for compounds:
CN1CCN([C@@H]2CCCN(c3cnc(C(N)=O)c(Nc4ccc(C5CCN(C[C@H]6CCN(c7ccc8c(c7)C(=O)N(C7CCC(=O)NC7=O)C8=O)C6)CC5)cc4)n3)C2)C1=O (stereo partly drawn) [Compound 44] | < 5 nM
CN1CCN([C@@H]2CCCN(c3cnc(C(N)=O)c(Nc4ccc(N5CC6CN(CC7CCN(c8ccc9c(c8)C(=O)N(N8CCC(=O)NC8=O)C9=O)CC7)CC6C5)cc4)n3)C2)C1=O (stereo partly drawn) [Compound 114] | < 5 nM

Please examine the following record next.
DC50 reading for CN1CCN([C@@H]2CCCN(c3cnc(C(N)=O)c(Nc4ccc(N5CCN(C[C@@H]6[C@H]7CN(c8ccc9c(c8)C(=O)N(C8CCC(=O)NC8=O)C9=O)C[C@@H]67)CC5)cc4)n3)C2)C1=O (stereo partly drawn) [Compound 38] : < 5 nM

* * *

molecular target: BTK (Homo sapiens, UniProt Q06187); construct: endogenous in cells; host or cells: TMD8 cells; experiment: Cellular BTK HTRF assay (BTK degradation) in TMD8 cells; type: cell-based; conditions: four hours incubation, Total-BTK HTRF relative to DMSO-treated cells
measured.property: DC50

NC(=O)c1ncc(-c2nccs2)nc1Nc1ccc(N2CCC3(CCN(Cc4ccc5c(c4)C(=O)N(C4CCC(=O)NC4=O)C5=O)CC3)CC2)cc1 (stereo not drawn) | 5 to 15 nM
NC(=O)c1ncc(N2CCCCC2)nc1Nc1ccc(C2CCN(C[C@@H]3CCN(c4ccc5c(c4)C(=O)N(C4CCC(=O)NC4=O)C5=O)C3)CC2)cc1 (stereo partly drawn) | < 5 nM
CN1CCN([C@H]2CCCN(c3cnc(C(N)=O)c(Nc4cnn(C5CCN(CC6CCN(c7ccc8c(c7)C(=O)N(C7CCC(=O)NC7=O)C8=O)CC6)CC5)c4)n3)C2)C1=O (stereo partly drawn) | < 5 nM
CN1CCN([C@@H]2CCCN(c3cnc(C(N)=O)c(Nc4ccc(C5CN(CC6CCN(c7ccc(-c8nn(C9CCC(=O)NC9=O)c(=O)n8C)cc7)CC6)C5)cc4)n3)C2)C1=O (stereo partly drawn) | < 5 nM
CN1CCN([C@@H]2CCCN(c3cnc(C(N)=O)c(Nc4ccc(C5CCN(C(=O)CCOCCOCCOCCNc6cccc7c6C(=O)N(C6CCC(=O)NC6=O)C7=O)CC5)cc4)n3)C2)C1=O (stereo partly drawn) | 5 to 15 nM

DC50 reading for CN1CCN([C@@H]2CCCN(c3cnc(C(N)=O)c(Nc4ccc(N5CCC6(CCN(C(=O)CCOCCCc7cccc8c7CN(C7CCC(=O)NC7=O)C8=O)CC6)CC5)cc4)n3)C2)C1=O (stereo partly drawn) : < 5 nM

DC50 reading for CN1CCN([C@@H]2CCCN(c3cnc(C(N)=O)c(Nc4ccc(C(=O)NCCOCCOCCOCCCc5cccc6c5CN(C5CCC(=O)NC5=O)C6=O)cc4)n3)C2)C1=O (stereo partly drawn) : > 15 nM

DC50 reading for CN1CCN([C@@H]2CCCN(c3cnc(C(N)=O)c(Nc4ccc(C5CCN(CCC6CN(c7ccc8c(c7)C(=O)N(C7CCC(=O)NC7=O)C8=O)C6)CC5)cc4)n3)C2)C1=O (stereo partly drawn) : < 5 nM

DC50 reading for CN1CCN([C@@H]2CCCN(c3cnc(C(N)=O)c(Nc4ccc(C5CCN(CC6CCN(c7cnn(C8CCC(=O)NC8=O)c(=O)c7)CC6)CC5)cc4)n3)C2)C1=O (stereo partly drawn) : < 5 nM
